Record form. Attribute: pIC50. Fill in for each entry.
# System: Cerebellar Granule Cells
# testDescription: Protection of cerebellar granule cells against Fe2+-induced oxidation (TBARS)
# Assay type: cell-based
# testContext: Rattus norvegicus, 0.75 h; Fe2+-induced damage, 100 μM ferrous chloride, 45 min; read-out: TBARS IC50
Answers are plain numbers, as −log10 of the molar value.

Identify pIC50 associated with the compound CC1(C)C(=O)c2ccccc2C=[N+]1[O-]
3.08

Dear colleague, please send me the reported pIC50 for CC1(C)C(O)c2ccccc2C=[N+]1[O-] (centres unmarked) when you can.
2.72

Could you tell me pIC50 for each of these compounds? They are listed below.
1. Cc1cc2c(c(C)c1O)CC(C)(C)[N+]([O-])=C2
2. [O-][N+]1=Cc2ccccc2C(O)C12CCCC2 (centres unmarked)
3. CC(=O)OC1c2ccccc2C=[N+]([O-])C1(C)C (centres unmarked)

1. 3.66
2. 3.11
3. 3.08

Each compound below has a recorded value; state its pIC50.
1. O=C1c2ccccc2C=[N+]([O-])C12CCCCC2
2. O=C1c2ccccc2C=[N+]([O-])C12CCCC2
3. [O-][N+]1=Cc2ccccc2C(O)C12CCCCC2 (centres unmarked)

4.43
3.99
3.28
